# test: Single-dose toxicokinetic study, plasma HCQ (Example 10)
# run-conditions: female, mouse, in vivo, 16 sprays
readout: concentration at 3 h (ng/mL)
State just the number; it will be interpreted in ng/mL.

Return reported concentration at 3 h; argument: CCN(CCO)CCCC(C)Nc1ccnc2cc(Cl)ccc12 (stereo not shown) [HCQ, Hydroxychloroquine]
16.8

---

# test: in vivo
# run-conditions: both, mouse
readout: half-life

Return reported half-life; argument: CCN(CCO)CCCC(C)Nc1ccnc2cc(Cl)ccc12 (stereo not shown) [HCQ, Hydroxychloroquine]
6 to 8 h

---

# test: Dose range and dose response study of HCQ for lung delivery (Example 9)
# run-conditions: female, mouse, in vivo, 16 sprays
readout: concentration at 3 h (ng/g)
State just the number; it will be interpreted in ng/g.

Return reported concentration at 3 h; argument: CCN(CCO)CCCC(C)Nc1ccnc2cc(Cl)ccc12 (stereo not shown) [HCQ, Hydroxychloroquine]
3250

---

# test: in vivo
# run-conditions: both, mouse
readout: half-life

Return reported half-life; argument: CCN(CCO)CCCC(C)Nc1ccnc2cc(Cl)ccc12 (stereo not shown) [HCQ, Hydroxychloroquine]
≥ 4 h

---

# test: Single-dose toxicokinetic study, plasma HCQ (Example 10)
# run-conditions: female, mouse, in vivo, 16 sprays
readout: Kp at 3 h
Lab note: write the figure by itself, no unit.

Return reported Kp at 3 h; argument: CCN(CCO)CCCC(C)Nc1ccnc2cc(Cl)ccc12 (stereo not shown) [HCQ, Hydroxychloroquine]
193

---

# test: Single-dose toxicokinetic study, plasma HCQ (Example 10)
# run-conditions: male, mouse, in vivo, 16 sprays
readout: Kp at 0.5 h
Lab note: write the figure by itself, no unit.

Return reported Kp at 0.5 h; argument: CCN(CCO)CCCC(C)Nc1ccnc2cc(Cl)ccc12 (stereo not shown) [HCQ, Hydroxychloroquine]
85.2

---

# test: Single-dose toxicokinetic study, plasma HCQ (Example 10)
# run-conditions: male, mouse, in vivo, 16 sprays
readout: concentration at 3 h (ng/mL)
State just the number; it will be interpreted in ng/mL.

Return reported concentration at 3 h; argument: CCN(CCO)CCCC(C)Nc1ccnc2cc(Cl)ccc12 (stereo not shown) [HCQ, Hydroxychloroquine]
13.2

---

# test: Cell viability (MTT) assay, CC50, Study APS002-1
# Type: cell-based
# run-conditions: African green monkey, Vero E6-TMPRSS2 cells
readout: CC50

{"columns": ["molecule", "CC50"],
 "data": [
  ["CCN(CCO)CCCC(C)Nc1ccnc2cc(Cl)ccc12 (centres unmarked) [HCQ, Hydroxychloroquine]", "> 100 µM"]
]}

Return reported CC50; argument: CCC(CC)COC(=O)[C@H](C)N[P@](=O)(OC[C@H]1O[C@@](C#N)(c2ccc3c(N)ncnn23)[C@H](O)[C@@H]1O)Oc1ccccc1
> 20 µM

---

# test: Dose range and dose response study of HCQ for lung delivery (Example 9)
# run-conditions: female, mouse, in vivo, 16 sprays
readout: concentration at 24 h (ng/g)
State just the number; it will be interpreted in ng/g.

Return reported concentration at 24 h; argument: CCN(CCO)CCCC(C)Nc1ccnc2cc(Cl)ccc12 (stereo not shown) [HCQ, Hydroxychloroquine]
339

---

# test: Single-dose toxicokinetic study, plasma HCQ (Example 10)
# run-conditions: female, mouse, in vivo, 16 sprays
readout: concentration at 24 h (ng/mL)
State just the number; it will be interpreted in ng/mL.

Return reported concentration at 24 h; argument: CCN(CCO)CCCC(C)Nc1ccnc2cc(Cl)ccc12 (stereo not shown) [HCQ, Hydroxychloroquine]
12.6
